Recorded values, source the supplement of paper PMC8975748.

- Tested on: Saccharomyces cerevisiae BY4741 SeMeCo community
- procedure.text: z-score of subpopulation abundance vs DMSO median, subpopulation auxotrophic for U; higher = larger share of this subpopulation than in DMSO controls
- cond: 10 µM; 24 h; SM minimal medium; subpopulation (auxotrophy): U
Structures can show the parent of a compound that is named as a salt.
Rule: z-score of subpopulation abundance under 0.4 gives 0, otherwise 1.

Is reported z-score of subpopulation abundance greater than or equal to 0.4 here: CCCCCC(=O)O[C@]1(C(C)=O)CC[C@H]2[C@@H]3CCC4=CC(=O)CC[C@]4(C)[C@H]3CC[C@@]21C [Hydroxyprogesterone caproate]
0

Test whether the molecule N[C@@H]1CONC1=O [D-Cycloserine] records z-score of subpopulation abundance of 0.4 or higher.
0

Would you say Cc1nccn1CC1CCc2c(c3ccccc3n2C)C1=O (stereo not drawn) [Ondansetron Hydrochloride Dihydrate] shows z-score of subpopulation abundance at minimum 0.4?
1

Confirm if z-score of subpopulation abundance reported for the molecule Cc1ncc([N+](=O)[O-])n1CCO [Metronidazole] is 0.4 or above.
0

hey, is z-score of subpopulation abundance for this one >= 0.4? CC1(C)S[C@@H]2[C@H](NC(=O)C(c3ccccc3)S(=O)(=O)O)C(=O)N2[C@H]1C(=O)O (stereo partly drawn) [Sulbenicillin Sodium]
1

Evaluate CO/N=C(/C(=O)N[C@@H]1C(=O)N2C(C(=O)OCOC(=O)C(C)(C)C)=C(C)CS[C@H]12)c1csc(N)n1 [Cefetamet pivoxil hydrochloride] : z-score of subpopulation abundance at minimum 0.4?
0

Is z-score of subpopulation abundance at least 0.4? Consider c1ccc(C2CN3CCSC3=N2)cc1 (stereo not drawn) [Tetramisole HCl]
0

Would you say CN[C@H](CC(C)C)C(=O)N[C@H]1C(=O)N[C@@H](CC(N)=O)C(=O)N[C@H]2C(=O)N[C@H]3C(=O)N[C@H](C(=O)N[C@H](C(=O)O)c4cc(O)cc(O)c4-c4cc3ccc4O)[C@H](O)c3ccc(c(Cl)c3)Oc3cc2cc(c3O[C@@H]2O[C@H](CO)[C@@H](O)[C@H](O)[C@H]2O[C@H]2C[C@](C)(N)[C@H](O)[C@H](C)O2)Oc2ccc(cc2Cl)[C@H]1O [Vancomycin] shows z-score of subpopulation abundance at minimum 0.4?
0

Please indicate if the recorded z-score of subpopulation abundance for CC(C)(O/N=C(\C(=O)N[C@@H]1C(=O)N2C(C(=O)[O-])=C(C[n+]3ccccc3)CS[C@H]12)c1csc(N)n1)C(=O)O [Ceftazidime] meets or exceeds 0.4.
0

Reported z-score of subpopulation abundance at or above 0.4? C[N+]1(C)[C@@H]2C[C@@H](OC(=O)C(O)(c3cccs3)c3cccs3)C[C@H]1[C@@H]1O[C@@H]12 [Tiotropium Bromide hydrate]
0

Threshold query (z-score of subpopulation abundance >= 0.4) on C[C@@H]1CN(c2c(F)c(N)c3c(=O)c(C(=O)O)cn(C4CC4)c3c2F)C[C@H](C)N1 [Sparfloxacin]
0

Reported z-score of subpopulation abundance at or above 0.4? Clc1ccc(COC(Cn2ccnc2)c2ccc(Cl)cc2Cl)c(Cl)c1 (stereo not drawn) [Miconazole Nitrate]
1

Identify whether the reported z-score of subpopulation abundance of the following molecule is 0.4 or greater: C[C@H]1NCc2cc(-c3ccc4c(=O)c(C(=O)O)cn(C5CC5)c4c3OC(F)F)ccc21 [Garenoxacin]
1

----------
- Test system: Saccharomyces cerevisiae BY4741 SeMeCo community
- procedure.text: z-score of subpopulation abundance vs DMSO median, subpopulation auxotrophic for HLM; higher = larger share of this subpopulation than in DMSO controls
- cond: 10 µM; 24 h; SM minimal medium; subpopulation (auxotrophy): HLM
Counter-ions that a name gives are not always drawn.
Kind request: treat 0.2 as inclusive, so z-score of subpopulation abundance at 0.2 or higher is True, anything lower is False.

I'd appreciate it if you could say whether CCOC(=O)c1ccc(N)cc1 [Benzocaine] has z-score of subpopulation abundance at least equal to 0.2.
False

Would you say CC(=O)N[C@H]1[C@H]([C@H](O)[C@H](O)CO)OC(C(=O)O)=C[C@@H]1NC(=N)N [Zanamivir] shows z-score of subpopulation abundance at minimum 0.2?
False

API: above_or_equal(metric=z-score of subpopulation abundance, cutoff=0.2) for item CCN1CCC[C@H]1CNC(=O)c1cc(S(N)(=O)=O)ccc1OC [Levosulpiride]
False

Confirm if z-score of subpopulation abundance reported for the molecule Cc1cc(NS(=O)(=O)c2ccc(N)cc2)no1 [Sulfamethoxazole sodium] is 0.2 or above.
False

Is z-score of subpopulation abundance for CN[C@H](CC(C)C)C(=O)N[C@H]1C(=O)N[C@@H](CC(N)=O)C(=O)N[C@H]2C(=O)N[C@H]3C(=O)N[C@H](C(=O)N[C@H](C(=O)O)c4cc(O)cc(O)c4-c4cc3ccc4O)[C@H](O)c3ccc(c(Cl)c3)Oc3cc2cc(c3O[C@@H]2O[C@H](CO)[C@@H](O)[C@H](O)[C@H]2O[C@H]2C[C@](C)(N)[C@H](O)[C@H](C)O2)Oc2ccc(cc2Cl)[C@H]1O [Vancomycin HCl] at or above 0.2?
True

Form field: z-score of subpopulation abundance at least 0.2? Entry: COc1ccc(CN2CCN(C(c3ccc(F)cc3)c3ccc(F)cc3)CC2)c(OC)c1OC [Lomerizine 2HCl]
True

----------
- Tested on: Saccharomyces cerevisiae BY4741 SeMeCo community
- procedure.text: z-score of subpopulation abundance vs DMSO median, subpopulation auxotrophic for LUM; higher = larger share of this subpopulation than in DMSO controls
- cond: 10 µM; 24 h; SM minimal medium; subpopulation (auxotrophy): LUM
Where a name gives a salt, the structure may show the parent alone.
Provide the recorded z-score of subpopulation abundance for the entries that follow.
No unit in the answer, please; the number alone is enough.

For the molecule Cc1nc(Nc2ccc(F)cc2)nc(N2CCc3ccccc3C2C)c1C (centres undefined) [Revaprazan Hydrochloride] , what z-score of subpopulation abundance is on record?
0.27

Give its z-score of subpopulation abundance value. Item: CO[C@@H]1[C@H](OC(=O)/C=C/C=C/C=C/C=C/C(=O)O)CC[C@]2(CO2)[C@H]1[C@@]1(C)O[C@@H]1CC=C(C)C [Fumagillin]
2.33

I'd like to know its z-score of subpopulation abundance. The molecule in question is O=C(O)Cc1ccccc1Nc1c(Cl)cccc1Cl [Diclofenac acid]
-0.28

I would be grateful if you could share the reported z-score of subpopulation abundance for CN1CC(=O)N2[C@H](c3ccc4c(c3)OCO4)c3[nH]c4ccccc4c3C[C@@H]2C1=O [Tadalafil] .
1.95

What measured z-score of subpopulation abundance goes with CN[C@H](CC(C)C)C(=O)N[C@H]1C(=O)N[C@@H](CC(N)=O)C(=O)N[C@H]2C(=O)N[C@H]3C(=O)N[C@H](C(=O)N[C@H](C(=O)O)c4cc(O)cc(O)c4-c4cc3ccc4O)[C@H](O)c3ccc(c(Cl)c3)Oc3cc2cc(c3O[C@@H]2O[C@H](CO)[C@@H](O)[C@H](O)[C@H]2O[C@H]2C[C@](C)(N)[C@H](O)[C@H](C)O2)Oc2ccc(cc2Cl)[C@H]1O [Vancomycin] ?
-0.78

If you can, please state the reported z-score of subpopulation abundance value of O=C1c2c(O)ccc(O)c2C(=O)c2c(NCCNCCO)ccc(NCCNCCO)c21 [Mitoxantrone 2HCl] .
-5.01

// returns reported z-score of subpopulation abundance for input COC(=O)C1=C(C)NC(C)=C(C(=O)OC2CCCN(Cc3ccccc3)C2)C1c1cccc([N+](=O)[O-])c1 (centres undefined) [Benidipine HCl]
0.29

Look at this molecule and give its reported z-score of subpopulation abundance. CCOc1ccc2nc3cc(N)ccc3c(N)c2c1 [Ethacridine lactate monohydrate]
-5.24

Give its z-score of subpopulation abundance value. Item: C[C@@H]1O[C@@H]1P(=O)(O)O [Fosfomycin Disodium]
0.06

Which z-score of subpopulation abundance is reported for this molecule? COc1cc2c(cc1OC)C(=O)C(CC1CCN(Cc3ccccc3)CC1)C2 (centres undefined) [Donepezil]
0.47

Give the measured z-score of subpopulation abundance of CCC(C)C1OC2(CCC1C)CC1CC(CC=C(C)C(OC3CC(OC)C(OC4CC(OC)C(O)C(C)O4)C(C)O3)C(C)C=CC=C3COC4C(O)C(C)=CC(C(=O)O1)C34O)O2 (centres undefined) [Ivermectin] .
1.28

Which z-score of subpopulation abundance is listed for CC(=O)OCC1=C(C(=O)O)N2C(=O)C(NC(=O)CSC(=NC(C)C)NC(C)C)C2SC1 (centres undefined) [Cefathiamidine] ?
-0.68

Given CN[C@@H]1[C@H](O[C@H]2[C@H](O[C@H]3[C@H](O)[C@@H](O)[C@H](N=C(N)N)[C@@H](O)[C@@H]3N=C(N)N)O[C@@H](C)[C@]2(O)C=O)O[C@@H](CO)[C@H](O)[C@H]1O [Streptomycin sulfate] , state its recorded z-score of subpopulation abundance.
-0.33

z-score of subpopulation abundance lookup needed for CC(C)[N+]1(C)[C@@H]2CC[C@H]1C[C@@H](OC(=O)C(CO)c1ccccc1)C2 (some centres undefined) [Ipratropium Bromide] , thanks.
-0.28
